Cited source: patent US20240174763A1

Biological target: T1, recombinant human CD73 protein (human, UniProt P21589 27-547, limits assumed)
T1 construct: Bought recombinant protein; the assays only say recombinant human CD73; also called rhCD73; recombinant hCD73 protein
T1 sequence (looked up): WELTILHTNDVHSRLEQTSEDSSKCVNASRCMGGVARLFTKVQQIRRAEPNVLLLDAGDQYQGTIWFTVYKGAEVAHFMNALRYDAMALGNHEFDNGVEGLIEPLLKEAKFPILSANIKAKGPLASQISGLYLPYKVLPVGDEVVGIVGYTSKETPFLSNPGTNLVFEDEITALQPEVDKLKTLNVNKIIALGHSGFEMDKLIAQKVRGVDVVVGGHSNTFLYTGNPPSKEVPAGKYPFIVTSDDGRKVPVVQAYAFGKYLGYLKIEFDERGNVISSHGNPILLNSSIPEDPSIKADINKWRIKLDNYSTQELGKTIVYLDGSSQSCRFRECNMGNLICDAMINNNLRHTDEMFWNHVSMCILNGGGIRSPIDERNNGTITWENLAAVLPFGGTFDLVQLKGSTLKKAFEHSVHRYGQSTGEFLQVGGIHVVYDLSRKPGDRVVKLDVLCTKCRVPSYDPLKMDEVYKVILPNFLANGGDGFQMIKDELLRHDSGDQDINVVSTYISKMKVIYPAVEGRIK
Test: ELISA, recombinant human CD73
Measured metric: EC50 (µg/mL)
Numeric answer only, unit µg/mL assumed.

Binder	Measured metric	Result unit	Experimental result
humanized CQ137 monoclonal antibody (137-8) (antibody, V domains shown) VH: QVQLVQSGAEVKKPGSSVKVSCKASGYSFTGYYIHWVRQAPGQGLEWMGRINPYNGATTYNQNFKDRVTITVDKSTSTAYMELSSLRSEDTAVYYCARFHYGAPDFWGQGTLVTVSS VL: DIQMTQSPSSLSASVGDRVTITCKASQDINTYLTWYQQKPGKAPKTLIYRANILVDGVPSRFSGSGSGTDFTLTISSLQPEDFATYYCLQYDQFPLTFGGGTKVEIKR	EC50	µg/mL	0.312
humanized CQ137 monoclonal antibody (137-9) (antibody, V domains shown) VH: QVQLVQSGAEVKKPGSSVKVSCKASGYSFTGYYIHWVRQAPGQGLEWMGRINPYNGATTYNQNFKDRVTITVDKSTSTAYMELSSLRSEDTAVYYCARFHYGAPDLWGQGTLVTVSS VL: DIQMTQSPSSLSASVGDRVTITCKASQDINTYLTWYQQKPGKAPKTLIYRANILVDGVPSRFSGSGSGTDFTLTISSLQPEDFATYYCLQYDAFPLTFGGGTKVEIKR	EC50	µg/mL	0.446

Supply EC50 value. Item: humanized CQ137 monoclonal antibody (137-6) (antibody, V domains shown) VH: QVQLVQSGAEVKKPGSSVKVSCKASGYSFTGYYIHWVRQAPGQGLEWMGRINPYNGATTYNQNFKDRVTITVDKSTSTAYMELSSLRSEDTAVYYCARFHYGAPEYWGQGTLVTVSS VL: DIQMTQSPSSLSASVGDRVTITCKASQDINTYLTWYQQKPGKAPKTLIYRANILVDGVPSRFSGSGSGTDFTLTISSLQPEDFATYYCLQYAEFPLTFGGGTKVEIKR
0.267
